src = patent US7704953B2

Tested on: antibody AB167
Assay: Phage ELISA for TAG suppression (binding of antibody AB167)
Parameters: species or system rabbit
Conditions: 10^8 pfu/ml; relative to clone B1 grown in the same host; /B = nonsuppressor BLT5403, /C = suppressor C600CR; average of triplicate wells
Decision: Percent antibody binding compared against 60%; not below it gives condition met, below it gives condition not met.

// query Confirm if Percent antibody binding reported for the substance NL*IQWLKDGGPSSGRPPPS [E7/B] is 60% or above.
// result condition not met

// query Confirm if Percent antibody binding reported for the substance NLYIQ*LKDGGPSSGRPPPS [E12/C] is 60% or above.
// result condition met

// query Confirm if Percent antibody binding reported for the substance NLYIQ*LKDGGPSSGRPPPS [E12/B] is 60% or above.
// result condition not met

// query Confirm if Percent antibody binding reported for the substance NLYIQWLKDGGPSSGRPPPS [B1/C] is 60% or above.
// result condition met

// query Confirm if Percent antibody binding reported for the substance NL*IQWLKDGGPSSGRPPPS [E7/C] is 60% or above.
// result condition met
